test: NCI Yeast Anticancer Drug Screen. Data for the mec2-1 strain (AID 157); settings: S. cerevisiae mec2-1 strain, at 50.0 µM (retest, dose inferred, filed as 5.0), stronger effect = higher value
Compounds without any hit were thinned out: in the full panel of roughly 79,000, 15% have a hit. The source made the active and inactive calls. Rule as the data show it: active = growth inhibition above about 70%; inactive = the rest.

Compound	growth inhibition
Clc1ccc(-c2cc(-c3cc(-c4ccc(Cl)c(Cl)c4)n[nH]3)[nH]n2)cc1Cl	43% (inactive)
COc1ccc(CN=C(N)N)c2ccccc12	5% (inactive)
O=C1Nc2ccccc2/C1=C/c1ccc(Cl)c(Cl)c1	89% (active)
CCCCCCC(=O)OCc1ccc(-c2ccccc2)cc1	100% (active)
CN(C)c1nc(NNS(=O)(=O)c2ccc(N)cc2)nc(N(C)C)n1	-1% (inactive)
O=C1SCCN1/N=C/c1ccc([N+](=O)[O-])o1	82% (active)
C[C@]12CCC(=O)C=C1CC[C@@H]1[C@@H]2[C@@H](O)C[C@@]2(C)[C@H]1CC[C@]2(O)C(=O)COC(=O)C1CCCC1	-1% (inactive)
Cc1ccc(C)c(N2C(=O)C(=O)C(c3nc4ccccc4o3)/C(=N\NC(=O)c3ccccc3O)C2=O)c1 (stereo unspecified)	29% (inactive)
COc1ccc2c(c1)CCC1=C2C=C[P+]1(C)C	96% (active)
CCCCCc1ccc2cc(C(=O)O)[nH]c2c1	72% (active)
CC(C)OC(=O)c1cc([N+](=O)[O-])cc([N+](=O)[O-])c1Sc1ncnc2nc[nH]c12	49% (inactive)
COc1ccccc1C1SC(c2ccccc2)(c2ccccc2)OC1=O (stereo unspecified)	-4% (inactive)
O=[N+]([O-])c1ccc(Oc2c(Cl)cccc2Cl)cc1	-5% (inactive)
c1cc(C2=NCCN2)ccc1Nc1ccc(-c2cc3ccc(C4=NCCN4)cc3[nH]2)cc1	98% (active)
COC(=O)c1nc2ccc([N+](=O)[O-])cc2n1O	-59% (inactive)
COc1ccc(/C=C(\C#N)c2ccccc2)cc1OC	29% (inactive)
N#CSCc1ccc(CSC#N)c(Cl)c1	91% (active)
O=CNNC(=O)Nc1ccc(Cl)cc1	14% (inactive)
C=C1CC(Cn2ccc(=O)[nH]c2=O)(c2ccc(Cl)cc2)OC1=O (stereo unspecified)	85% (active)
O=C1C=CC(=O)c2c(O)c(N3CCC[C@H]3CO)c(Cl)c(O)c21	90% (active)
COC(=O)c1[nH]cnc1/N=N/N(C)C	99% (active)
[N-]=[N+]=Nc1ccc(SSCCC(=O)ON2C(=O)CCC2=O)cc1	98% (active)
COc1cccc(C(=O)C(CN(C)C)CN(C)C)c1	69% (inactive)
CN(C)CCOc1ccc2c(c1)C(=O)/C(=C\c1ncc([N+](=O)[O-])n1C)C2	89% (active)
O=C(N/C(=C\c1ccccc1Cl)c1nc2ccccc2s1)c1ccccc1	99% (active)
O=C(O)C(Br)C(Br)c1ccccc1[N+](=O)[O-] (stereo unspecified)	60% (inactive)
CCC(c1cccc(O)c1)C(CC)c1cccc(O)c1 (stereo unspecified)	67% (inactive)
CCOC(=O)C(NC(=O)C(CO)n1c(-c2ccccc2)c(-c2ccccc2)oc1=O)C(=O)OCC (stereo unspecified)	19% (inactive)
C/C(CCSCc1ccccc1)=N/NC(N)=S	65% (inactive)
O=[N+]([O-])c1cc(Cl)c(Cl)cc1NS(=O)(=O)c1ccccc1	51% (inactive)
Cc1[nH]c2ccccc2c1/C=C1\C(=O)C2CCC1C2 (stereo unspecified)	73% (active)
CCCCN(C)C(=S)N/N=C(\C)c1ccccn1	100% (active)
CC(C)(c1ccccc1)c1ccc2[nH]c(C(C)(C)c3ccccc3)c(CC(=O)O)c2c1	80% (active)
Cc1cc(N)c2c(c1O)C(=O)c1ccccc1C2=O	26% (inactive)
NC(=O)NN=C1CSSC1	23% (inactive)
CCCCCCCCCN(CCCCCCCCC)CC(O)c1cc2c(c3ccccc13)CCCC2 (stereo unspecified)	96% (active)
CC1=NC(=Cc2ccc(Cl)cc2)C(=O)N1n1c(-c2ccccc2)nc2ccccc2c1=O	83% (active)
CCCCN(CCCC)Cc1ccc(NC(C(=O)c2ccccc2)c2ccccc2)cc1 (stereo unspecified)	49% (inactive)
O=C(C(Oc1ccc(Cl)cc1)Oc1ccc(Cl)cc1)N(O)c1ccccc1OCc1ccccc1	39% (inactive)
O=[N+]([O-])c1ccc(-c2nc3ccc(F)cc3[nH]2)o1	99% (active)
COC(O)C(=O)c1c2c(cc3c1CC1(Cc4cc5c(cc4C1)CCC5)C3)CCC2 (stereo unspecified)	99% (active)
CCN(CC)CC(O)CNc1ccc(C)c2sc3ccccc3c(=O)c12 (stereo unspecified)	99% (active)
O=C1C=CC(=O)c2c1oc1ccccc21	99% (active)
CCCCCCCCSCc1ccc(N)cc1	98% (active)
COC(=O)c1[nH]c(=O)c(C#N)c(C(=O)OC)c1C(=O)c1ccc2ccccc2c1	20% (inactive)
C1CSCCCSCCCSCCCSCCCSC1	17% (inactive)

Provenance of the data: PubChem BioAssay (NCI)
